- Measured on: Protein deacetylase HDAC6 (Homo sapiens, UniProt Q9UBN7)
- Sequence (Q9UBN7 whole entry): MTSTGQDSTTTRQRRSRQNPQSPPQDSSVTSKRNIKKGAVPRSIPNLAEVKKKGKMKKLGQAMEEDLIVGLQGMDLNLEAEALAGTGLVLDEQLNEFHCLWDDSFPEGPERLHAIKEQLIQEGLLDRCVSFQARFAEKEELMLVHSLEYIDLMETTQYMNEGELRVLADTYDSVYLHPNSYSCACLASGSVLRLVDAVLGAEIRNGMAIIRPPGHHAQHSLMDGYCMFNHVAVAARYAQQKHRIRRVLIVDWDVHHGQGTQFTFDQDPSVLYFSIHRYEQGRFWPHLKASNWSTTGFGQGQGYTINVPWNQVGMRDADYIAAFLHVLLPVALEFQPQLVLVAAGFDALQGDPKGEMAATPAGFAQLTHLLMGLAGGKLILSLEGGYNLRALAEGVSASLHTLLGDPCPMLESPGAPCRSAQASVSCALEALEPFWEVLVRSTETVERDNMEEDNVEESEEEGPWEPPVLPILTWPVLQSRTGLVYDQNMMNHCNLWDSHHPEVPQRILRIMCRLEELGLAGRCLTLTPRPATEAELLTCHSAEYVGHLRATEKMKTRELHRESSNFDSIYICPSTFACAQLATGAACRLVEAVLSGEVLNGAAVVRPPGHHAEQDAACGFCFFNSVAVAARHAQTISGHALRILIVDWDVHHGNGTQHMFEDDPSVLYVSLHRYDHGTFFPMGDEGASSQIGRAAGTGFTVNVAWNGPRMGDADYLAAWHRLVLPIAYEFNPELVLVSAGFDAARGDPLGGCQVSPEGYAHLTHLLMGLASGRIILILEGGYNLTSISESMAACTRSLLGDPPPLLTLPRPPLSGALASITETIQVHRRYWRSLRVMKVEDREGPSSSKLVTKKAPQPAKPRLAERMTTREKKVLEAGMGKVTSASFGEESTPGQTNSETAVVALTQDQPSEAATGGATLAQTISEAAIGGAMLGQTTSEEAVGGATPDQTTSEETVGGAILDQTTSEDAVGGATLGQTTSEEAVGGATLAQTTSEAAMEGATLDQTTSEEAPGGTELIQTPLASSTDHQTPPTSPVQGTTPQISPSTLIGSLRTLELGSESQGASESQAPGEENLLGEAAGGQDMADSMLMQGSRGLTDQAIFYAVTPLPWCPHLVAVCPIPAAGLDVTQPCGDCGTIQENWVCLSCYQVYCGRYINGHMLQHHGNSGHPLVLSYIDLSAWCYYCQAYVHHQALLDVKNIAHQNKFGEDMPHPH
pIC50: −log10 of the molar value.
Outcome label depends on pIC50 relative to 8: at/above gives met, below gives not met.

Could you verify whether the entry "O=C(CCCCC[C@H](NC(=O)[C@H]1CCC(=O)N1)C(=O)Nc1cccc(C(F)(F)F)c1)NO" shows pIC50 of no less than 8?
met

Could you verify whether the entry O=C(CCCCC[C@H](NC(=O)C1C(=O)NCC1c1ccccc1)C(=O)Nc1ccccc1)NO (stereo partly drawn) shows pIC50 of no less than 8?
met

Could you verify whether the entry O=C(CCCCC[C@H](NC(=O)C1CCCNC1=O)C(=O)Nc1ccccc1)NO (stereo partly drawn) shows pIC50 of no less than 8?
not met

--- query ---
Could you verify whether the entry "O=C(CCCCCCC(=O)NCCc1ccccc1)NO" shows pIC50 of no less than 8?
not met
